- Tested on: RXF 393 renal
- assayProcedure: NCI-60 one-dose screen, 48 h
- cond: 10 µM unless noted
This is part of a sample that, as a whole, favours compounds with a hit. Of some 83,000 tested, about 20% had one in any assay. Activity calls are given as the source filed them. The calls were made as follows: active = growth percent below 10; inactive = the rest.
In this exercise, the only acceptable responses are T = active, F = inactive

Sample answers from the record:
>>> df
                                   compound  cat
0  CN1C(=O)/C(=C2\SC(=Nc3ccccc3)N(Nc3ccccc3)C2=O)c2ccccc21    F
1  O=C(N/N=C/c1cc(Cl)ccc1O)c1ccccc1Nc1ccnc(C(F)(F)F)c1    F
2  COc1ccc(/C=C/C(=O)c2cc3c(N)c(C(=O)Nc4cccc(Cl)c4C)sc3nc2C)cc1    T
3  COc1cc(-c2nc3sccn3c2-c2ccnc(NCCNS(=O)(=O)c3ccc(Cl)cc3)n2)ccc1F    F
4  CC[C@]12C=CCN3CC[C@@]4(c5ccc(OC)cc5N(C)[C@H]4[C@@](O)(C(=O)OC)[C@@H]1OC(=O)CCC[P+](c1ccccc1)(c1ccccc1)c1ccccc1)[C@@H]32    F

Task item: Outcome logged for CC(C)N1C(=O)/C(=c2\sc3n(c2=O)C2C(NN=3)N(C)C(=O)N2C)c2ccccc21 (stereo not drawn) in this assay:
Reply: F

Task item: Outcome logged for "CCn1c(-c2cc3c([nH]c4ccccc43)c(-c3cccc(O)c3)n2)n[nH]c1=S" in this assay:
Reply: T

Task item: Outcome logged for CCN1C(=O)N(CC)C2C1NN=c1s/c(=C3\C(=O)N(CC(C)C)c4ccccc43)c(=O)n12 (stereo not drawn) in this assay:
Reply: F

Task item: Outcome logged for "C[C@]1(O)CC(=O)[C@]2(O)C3=C(C=C[C@]2(O)C1)C(=O)c1c(O)cccc1C3=O" in this assay:
Reply: T

Task item: Outcome logged for "O=C1/C(=C/c2ccccn2)NC(=S)N1c1ccccc1Cl" in this assay:
Reply: T

Task item: Outcome logged for "CC1=C(C(=O)Nc2nc(-c3ccc(Cl)cc3)cs2)[C@H](c2ccc(O)cc2)NC(=O)N1" in this assay:
Reply: F

Task item: Outcome logged for COc1ccc(/C=C/C(c2cc(OC)c(OC)c(OC)c2)n2ccnc2)cc1O (stereo not drawn) in this assay:
Reply: F

Task item: Outcome logged for "Cc1ccc(CNc2c3ccccc3nc3ccccc23)cc1" in this assay:
Reply: F

Task item: Outcome logged for "CC1=C2[C@@H](CC1)[C@]1(C)O[C@@](C3CCCCC3)(C[C@H]1OC(=O)CO)[C@H]2OC(=O)/C=C/c1ccccc1" in this assay:
Reply: F

Task item: Outcome logged for CNC(C)[C@H]1CCC2C3CC=C4C(=O)[C@@H](NC(=O)C=C(C)C)CC[C@]4(C)C3CC[C@@]21C (stereo partly drawn) in this assay:
Reply: T

Task item: Outcome logged for Cn1c2c(c3ccc(Cl)c(Cl)c31)C(C#N)C(C)(C)NC2=O (stereo not drawn) in this assay:
Reply: F

Task item: Outcome logged for CC(C)CCN(CCC(C)C)CC(O)c1cc2c(c3ccccc13)CCCC2 (stereo not drawn) in this assay:
Reply: F

Task item: Outcome logged for "NC(N)=NS(=O)(=O)c1ccc(NC2=C(I)C(=O)c3ncccc3C2=O)cc1" in this assay:
Reply: F

Task item: Outcome logged for O=C(NC1CC(F)C1)c1cc2cccnc2n1-c1ccc(Cl)c(Cl)c1 (stereo not drawn) in this assay:
Reply: F

Task item: Outcome logged for "C=CC(=O)Nc1ccc(Oc2nccc(Nc3nnc(-c4ccc(C)cc4)s3)n2)cc1" in this assay:
Reply: F

Task item: Outcome logged for "Fc1ccc(Cn2cc(CSc3nc4ccccc4o3)nn2)cc1" in this assay:
Reply: F

Task item: Outcome logged for "Cc1nc2c(=O)nc3s/c(=C\c4ccco4)c(=O)n3c2nc1C" in this assay:
Reply: F

Task item: Outcome logged for "COc1cc(-c2nc3cc(Cl)c(Cl)cc3[nH]2)ccc1OCC(=O)N=Nc1c(O)[nH]c2ccc(Cl)cc12" in this assay:
Reply: T

Task item: Outcome logged for "C=CCN1C(=O)c2cccc3c(N4CCOCC4)ccc(c23)C1=O" in this assay:
Reply: T
